test system: Human immunodeficiency virus 1; assay: Inhibition of 50% of the integrase-mediated catalysis of the Y-oligo substrate with 95% confidence interval; type: functional; settings: Human immunodeficiency virus 1
PROPERTY: IC50 (nM)
Answers are plain numbers, in nM.

Guide cases for IC50, answers given:
CC(CCC(=O)O)C1CC[C@H]2[C@@H]3CCC4C[C@H](OC(=O)/C=C/c5ccc(O)c(O)c5)CC[C@]4(C)[C@H]3C[C@H](OC(=O)/C=C/c3ccc(O)c(O)c3)[C@]12C (some centres undefined) ... 1970
O=C(/C=C/c1ccc(O)c(O)c1)Nc1cc(NC(=O)/C=C/c2ccc(O)c(O)c2)cc(C(=O)O)c1 ... 730
O=C(/C=C\c1ccc(O)c(O)c1)NC(CNC(=O)/C=C/c1ccc(O)c(O)c1)C(=O)O (centres undefined) ... 570

# next compound below
Query: Need IC50, item O=C(/C=C\c1ccc(O)c(O)c1)NC(COC(=O)/C=C/c1ccc(O)c(O)c1)C(=O)O (centres undefined)
Response: 120

###

experiment: Therapeutic index (ratio of CT5 to ED50).; details: read-out: TI
Criterion: selectivity ratio strictly under 10. Met: 1. Not met: 0.

Consider the worked cases shown below.
CC(CCC(=O)O)C1CC[C@H]2[C@@H]3CCC4C[C@H](OC(=O)/C=C/c5ccc(O)c(O)c5)CC[C@]4(C)[C@H]3C[C@H](OC(=O)/C=C/c3ccc(O)c(O)c3)[C@]12C (some centres undefined) ... 1
CCN(CC)C(=O)C(Cc1ccc(O)c(O)c1)C(Cc1ccc(O)c(O)c1)C(=O)O (centres undefined) ... 1
O=C(OC(C(=O)O)C(OC(=O)c1cccs1)C(=O)O)c1cccs1 (centres undefined) ... 1
CC(CCC(=O)O)C1CC[C@H]2[C@@H]3[C@H](OC(=O)/C=C/c4ccc(O)c(O)c4)CC4C[C@H](OC(=O)/C=C/c5ccc(O)c(O)c5)CC[C@]4(C)[C@H]3C[C@H](OC(=O)/C=C/c3ccc(O)c(O)c3)[C@]12C (some centres undefined) ... 1
CC(=O)Oc1ccc(/C=C/C(=O)OC(C(=O)O)C(OC(=O)/C=C/c2ccc(OC(C)=O)c(OC(C)=O)c2)C(=O)O)cc1OC(C)=O (centres undefined) ... 1
O=C(O)C(O)C(O)C(=O)O (centres undefined) ... 1
NC(=O)C(Cc1ccc(O)c(O)c1)C(Cc1ccc(O)c(O)c1)C(=O)O (centres undefined) ... 1
O=C(/C=C\c1ccc(O)c(O)c1)NC(COC(=O)/C=C/c1ccc(O)c(O)c1)C(=O)O (centres undefined) ... 0
O=C(/C=C\c1ccc(O)c(O)c1)NC(CNC(=O)/C=C/c1ccc(O)c(O)c1)C(=O)O (centres undefined) ... 1
CCCCCCCCCCNC(=O)C(Cc1ccc(O)c(O)c1)C(Cc1ccc(O)c(O)c1)C(=O)O (centres undefined) ... 1

Query: Determine if `O=C(O)C(=C\c1ccc(O)c(O)c1)/C(=C/c1ccc(O)c(O)c1)C(=O)O` shows selectivity ratio strictly lower than 10.
Response: 0

Query: Determine if O=C(/C=C/c1ccc(O)c(O)c1)NCC(OC(=O)/C=C\c1ccc(O)c(O)c1)C(=O)O (centres undefined) shows selectivity ratio strictly lower than 10.
Response: 0

Query: Determine if O=C(OC(C(=O)O)C(OC(=O)c1ccsc1)C(=O)O)c1ccsc1 (centres undefined) shows selectivity ratio strictly lower than 10.
Response: 1
